target: Ag85C (Mycobacterium tuberculosis, UniProt P9WQN9); assay: 4-methylumbelliferyl butyrate; format: biochemical; details: 600 nM Ag85C, 10 mM trehalose, 100 µM 4-MUB, 37 °C, inhibitor 20-320 µM
Sequence (P9WQN9 46-340): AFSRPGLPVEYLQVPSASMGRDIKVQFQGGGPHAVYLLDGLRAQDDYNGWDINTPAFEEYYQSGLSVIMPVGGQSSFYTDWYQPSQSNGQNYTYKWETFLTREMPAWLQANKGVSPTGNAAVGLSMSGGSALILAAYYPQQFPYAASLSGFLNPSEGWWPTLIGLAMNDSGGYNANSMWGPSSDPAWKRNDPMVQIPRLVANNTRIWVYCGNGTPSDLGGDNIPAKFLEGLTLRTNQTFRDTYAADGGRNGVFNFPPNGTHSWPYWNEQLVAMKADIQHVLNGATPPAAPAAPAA
Endpoint Label: Ki (µM)
Reply with just the number (in µM).

Molecule	Ki, µM
CCOC(=O)c1c(NC(=O)C(CC)SC[C@H]2O[C@H](OC)[C@@H](O)[C@@H]2O)sc2c1CCCC2 (stereo partly drawn) [Compound 13c]	71
CCOC(=O)c1c(NC(=O)CSCC2OC(OC)C(O)C2O)sc2c1CCCC2 (stereo not drawn) [Compound 13a]	18.2

// next entry
Entry CO[C@H]1O[C@H](CSCC(=O)Nc2sc3c(c2C#N)CCCC3)[C@@H](O)[C@@H]1O [Compound 13b] — recorded Ki = 34.8
